Target: 25 HLA Class II alleles (purified class II MHC molecules)
Test: competitive radiolabelled-peptide binding to purified HLA class II (25 alleles, binder if IC50 <300 nM); worldwide phenotypic coverage of the alleles found to bind
outcomeMeasure: Measured binding coverage 25 alleles (%)

Consider the reported Measured binding coverage 25 alleles for these binders:
1. KFIPTLVAAVKQAYAAKQ [peptide 138, Lol p 5b (Bio03A)]
99
2. KEDFLGSLVKEIPPRLLYAK [peptide 222 (Phl p 4, 8)]
100
3. EIKSTKPEASSGEPVVVHIT [peptide 203 (Phl p 1, 74)]
71

[P] VRYTTEGGTKTEAEDVIPEG [peptide 212 (Phl p 1, 211)]
[Q] KSSWGAIWRIDPKKPLK [peptide 136, Cyn d 1 (Ber02C)]
In: Compare P and Q and name the one whose reported Measured binding coverage 25 alleles is smaller. Let me know the label of the one you choose.
Out: P
(P: 40%, Q: 76%)

[a] KYDAYVATLTEALR [peptide 137, Lol p 5b (Bio02A)]
[b] SGKAFGAMAKKGQED [peptide 134, Cyn d 1 (Ber01)]
In: Higher Measured binding coverage 25 alleles between a and b ? Lab note: record the label of whichever item you select.
Out: a

[a] EQKLIEKINAGFKAALAAAA [peptide 229 (Phl p 5, 21)]
[b] HGSEEWEPLTKKGNVWEVKS [peptide 218 (Phl p 3, 38)]
[c] TEAEDVIPEGWKADTSYESK [peptide 213 (Phl p 1, 221)]
In: Rank ascending by Measured binding coverage 25 alleles. Kindly provide the labels arranged according to the requested ordering.
Out: b, c, a
